- study system: CHIKV p62-E1 (Chikungunya virus)
- run description: ELISA, plate-coated p62-E1, eight-point mAb dilution
pEC50: −log10 of the molar value.
endpoint name: pEC50

binder="DC2.M301 (antibody, V domains shown) VH: QVQLVQSGAEVKKPGAAVKVSCKASGYTFSGYYIHWVRQAPGQGLEWMGWINPNSGGTDFAQKFQGRVTMTRDTSISTAYMELSRLRSDDTAVYLCSRDPGYTYGYPLGYWGQGTLVTVSS VL: ETTLTQSPGTLSLSPGERATLSCRASQSVSSSYLAWYQQKPGQAPRLLIYGTSSRATGIPDRFSGRGSGTDFTLTISRLEPEDFAVYYCQQYGNSPPYTFGQGTKVDIK" endpoint_value=9.06
binder="DC2.M5 (antibody, V domains shown) VH: EVQLVESGGGLVQPGGSLSLACEVSGFILSDHYIDWVRQAPGKGLEWVGRSRNKAKRYTTEYAASVKGRFTISRDDSNNSLYLLMKSLKTEDTAVYFCTRAGYYDKNGDSLDALDIWGQGTMVTVSS VL: DIQVTQSPSSLSASVGDRVTITCRTSQTVSSNLNWYQQRPGKAPKLLISGISDLHSGVPSRFSGSGSGTDSTLTISSLQPEDSATYYCQQSYSLPRTFGQGTKVEIK" endpoint_value=7.48
binder="DC2.M342 (antibody, V domains shown) VH: QVQLVQSGAEVKKSGSSVTVSCKASGSTFISHAISWVRQAPGEGLEWMGRLIPVSGTPKYAHKFQGRLTITADDSTTTVYLTLRSLRFEDTAVYYCATWDADSTTLLYYFMDVWGKGTTVTVSS VL: DIQVTQSPSTLSASVGDRVTITCRASQSISRWLAWYQQKPGKAPKLLIYKASSLESGVPSRFSGTGSGTEFTLTISSLQPDDFATYYCQQYNSYSTWTFGQGTKLEIK" endpoint_value=7.46
binder="DC2.M336 (antibody, V domains shown) VH: QVQLVQSGGRLVKPGGSLRLSCAASGFTIIDSYMSWIRQAPGKGLEWISYINPSGSVIYYSDSVKGRFISSRDNAKNSVYLQLSSLRAEDAAVYYCARGIYDQSDAFDLWGQGTTVTVSS VL: DIVLTQSPSSLSASVGDRVTITCRASQGISNSLAWYQQRPGKAPKLLIYGASRLGSGVPSRFSGSGSGADYTLTISGLQPEDFATYYCQQYYITPPMTFGPGTKVDIK" endpoint_value=9.05
binder="DC2.M287 (antibody, V domains shown) VH: EVQLVESGGGLVQPGGSLRLSCAASGFTFRDYWMIWVRQTPGKGLEWVANINRNGNEKHYVDSLKGRFTISRDNTKNSLYLQVNGLSAEDTAVYYCVRDSSPSFGPGNYYDAFDIWGQGTTVTVSS VL: DIRVTQSPSSLSASVGDRVTITCRASQDIRNEVGWYQQKPGQAPKVLIFAASTLQSGVPSRFRGSGSGTVFTLTISSLQPEDLATYYCLQDFNYPRTFGQGTKVDIK" endpoint_value=7.37
binder="DC2.M17 (antibody, V domains shown) VH: EVQLVESGSELKKPGASVRVSCEASGYSFTSHTIVWMRQAPGQGLECLGWINTNTGNPTYAQGFTGRFVFSLDTSVSTAYLQISSLKAADTAVYYCARVLKCLGGSASCSGHGYYDYGMAVWGQGTTVTVSS VL: DIVLTQSPLSLPVTPGEPASISCRSSQSLLHSNGYNFLHWYLQKPGQSPQLLIYLGSIRASGVPDRFSGSGSGTDFTLKISRVEAEDVGVYYCMQALQTFMYTFGQGTKLEIK" endpoint_value=9.05
